This listing pairs compounds with measured pIC50.
Target under test: mTOR/GbL/Raptor (mTORC1) (Homo sapiens, UniProt P42345)
Method: mTOR/GbL/Raptor (mTORC1) ELISA assay
Measurement conditions: phosphorylation of 4E-BP1; 0.2 nM mTORC1, 10 μM ATP; read-out: IC50 in this assay (mTORC1 ELISA)
pIC50: −log10 of the molar value.

>>> assay_value("Cc1nc2cc(-c3ccc4c(c3)CN(c3nc([C@@H]5CCCN5)nc5c3CC(C)(C)CC5)CCO4)cnc2[nH]1")
"≥ 8.00"
>>> assay_value("CN(C)Cc1nc2c(c(N3CCOc4ccc(-c5ccc(N)nc5)cc4C3)n1)CC(C)(C)CC2")
"6.60 to 7.30"
>>> assay_value("CC1(C)CCc2ncnc(N3CCOc4ccc(-c5cnc(N)c(S(=O)(=O)NC[C@H]6CCCN6)c5)cc4C3)c2C1")
"7.30 to 8.00"

Ask | Hello, I am looking for reported pIC50 with mTOR/GbL/Raptor (mTORC1) (Homo sapiens, UniProt P42345) for CC1(C)CCc2ncnc(N3CCOc4ccc(-c5cnc(N)c(S(=O)(=O)O)c5)cc4C3)c2C1 . Could you help?
Reply | 6.60 to 7.30

Ask | Hello, I am looking for reported pIC50 with mTOR/GbL/Raptor (mTORC1) (Homo sapiens, UniProt P42345) for Cc1nc2ccc(-c3ccc4c(c3)CN(c3cc(C(C)C)ncn3)CCO4)cc2[nH]1 . Could you help?
Reply | 6.60 to 7.30

Ask | Hello, I am looking for reported pIC50 with mTOR/GbL/Raptor (mTORC1) (Homo sapiens, UniProt P42345) for C=CCc1c(C)nc(CN(C)C)nc1N1CCOc2ccc(-c3ccc4nc(C)[nH]c4c3)cc2C1 . Could you help?
Reply | 6.60 to 7.30

Ask | Hello, I am looking for reported pIC50 with mTOR/GbL/Raptor (mTORC1) (Homo sapiens, UniProt P42345) for CSc1nc2ccc(-c3ccc4c(c3)CN(c3ccnc5ccccc35)CCO4)cc2[nH]1 . Could you help?
Reply | 6.60 to 7.30

====

Target under test: mTOR/GbL/Raptor (mTORC1) (Homo sapiens, UniProt P42345)
Method: mTOR/GbL/Raptor (mTORC1) ELISA assay
Measurement conditions: phosphorylation of 4E-BP1; 0.2 nM mTORC1, 10 μM ATP; read-out: IC50 in this assay (mTORC1 ELISA)
Description: The measurement of mTORC1 enzyme activity was performed in an ELISA assay format following the phosphorylation of 4E-BP1 protein. All experiments were performed in the 384-well format. Generally, 0.5 μL DMSO containing varying concentrations of the test Compound was mixed with 15 μL enzyme solution. […] Following the final wash step with TBST, 20 μL of SuperSignal ELISA Femto (Pierce Biotechnology) was added and the luminescence measured using an EnVision plate reader.
pIC50: −log10 of the molar value.
This listing pairs compounds with measured pIC50.

Some solved entries appear below for comparison.
>>> assay_value("Cc1nc2ncc(-c3ccc4c(c3)CN(c3ncnc5c3CC(C)(C)CC5)CCO4)cc2[nH]1 [Example 234]")
"≥ 8.00"
>>> assay_value("CCc1ncnc(N2CCOc3ccc(-c4cnc5nc(C)[nH]c5c4)cc3C2)c1C [Example 245]")
"6.60 to 7.30"
>>> assay_value("COc1ccc2c(N3CCOc4ccc(-c5cnc(Cl)c(NS(C)(=O)=O)c5)cc4C3)ncnc2c1 [Example 608]")
"7.30 to 8.00"
>>> assay_value("CN(C)c1nc2ccc(-c3ccc4c(c3)CN(c3ccnc5ccccc35)CCO4)cc2[nH]1 [Example 195]")
"5.70 to 6.00"
>>> assay_value("CC1(C)C=Cc2ncnc(N3CCOc4ccc(-c5ccc(-c6ncc[nH]6)cc5)cc4C3)c2C1 [Example 479]")
"≥ 8.00"

Ask | Endpoint output: pIC50 of Cc1nc2cc(-c3ccc4c(c3)CN(c3ncnc5c3CC3(CC5)CC3)CCO4)cnc2[nH]1 [Example 502] . Value?
Reply | ≥ 8.00

Ask | Endpoint output: pIC50 of Cc1ccc2ncnc(N3CCOc4ccc(-c5cnc6nc(N)[nH]c6c5)cc4C3)c2c1 [Example 218] . Value?
Reply | ≥ 8.00

Ask | Endpoint output: pIC50 of CC1=Cc2ncnc(N3CCOc4ccc(-c5cnc(N)c(S(=O)(=O)N6CC[C@@H](N)C6)c5)cc4C3)c2CC1(C)C [Example 447] . Value?
Reply | ≥ 8.00

Ask | Endpoint output: pIC50 of Cc1nc2ncc(-c3ccc4c(c3)CN(c3ncnc5c3CC(F)(F)CC5)CCO4)cc2[nH]1 [Example 471] . Value?
Reply | 6.60 to 7.30

Ask | Endpoint output: pIC50 of Cc1nc2cc(-c3ccc4c(c3)CN(c3nc(N)nc(C)c3Cc3ccc(F)cc3)CCO4)cnc2[nH]1 [Example 690] . Value?
Reply | ≥ 8.00

Ask | Endpoint output: pIC50 of CC1(C)CCc2ncnc(N3CCOc4ccc(-c5cnc(N)c(S(=O)(=O)N6CC[C@@H](N)C6)c5)cc4C3)c2C1 [Example 449] . Value?
Reply | ≥ 8.00

Ask | Endpoint output: pIC50 of CC1=Cc2ncnc(N3CCOc4ccc(-c5cnc(N)c(S(=O)(=O)NCC6CCN(C)CC6)c5)cc4C3)c2CC1(C)C [Example 420] . Value?
Reply | 6.00 to 6.60

Ask | Endpoint output: pIC50 of CCNc1nc2ccc(-c3ccc4c(c3)CN(c3nc(C)nc5cc(F)ccc35)CCO4)cc2[nH]1 [Example 295] . Value?
Reply | 6.60 to 7.30

Ask | Endpoint output: pIC50 of Cc1nc2ncc(-c3ccc4c(c3)CN(c3ncnc(Cl)c3C)CCO4)cc2[nH]1 [Example 481] . Value?
Reply | 6.60 to 7.30

Ask | Endpoint output: pIC50 of Cc1nc2ccc(-c3ccc4c(c3)CN(c3ccnc(N)c3)CCO4)cc2[nH]1 [Example 262] . Value?
Reply | ≤ 5.70

Ask | Endpoint output: pIC50 of CC[C@H]1CCc2c(nc(CN(C)C)nc2N2CCOc3ccc(-c4cnc5nc(C)[nH]c5c4)cc3C2)C1 [Example 334] . Value?
Reply | 7.30 to 8.00

Ask | Endpoint output: pIC50 of CCNc1nc2ncc(-c3ccc4c(c3)CN(c3ncnc(C)c3Cc3ccc(F)cc3)CCO4)cc2[nH]1 [Example 250] . Value?
Reply | ≥ 8.00
